assay: Volume of distribution at steady state in Wistar Han rat at 2 mg/kg, iv or 10 mg/kg, po; assay type: ADME, organism-based; details: in vivo, read-out: Vdss
Below, each of the compounds is paired with its reported Vd value.
Provide the reading as a plain figure in L/kg.

Record excerpt, results attached:
[
  {
    "Compound Structure String": "CCNC1=N[C@@H]2[C@@H](F)[C@H](O)[C@@H](CO)O[C@@H]2S1",
    "Vd (L/kg)": 2
  },
  {
    "Compound Structure String": "CCNC1=N[C@@H]2[C@@H](O)[C@H](O)[C@@H](C(F)F)O[C@@H]2S1",
    "Vd (L/kg)": 3.7
  }
]

Query: State the recorded Vd for this entry: `CCNC1=N[C@@H]2[C@@H](O)[C@H](O)[C@@H](CO)O[C@@H]2S1`
Response: 1.5

Query: State the recorded Vd for this entry: `CNC1=N[C@@H]2C[C@H](O)[C@@H](CO)O[C@@H]2S1`
Response: 2.8

Query: State the recorded Vd for this entry: `CCN(C)C1=N[C@@H]2[C@@H](O)[C@H](O)[C@@H](CO)O[C@@H]2S1`
Response: 5.39

Query: State the recorded Vd for this entry: `OC[C@H]1O[C@@H]2SC(N3CCC3)=N[C@@H]2[C@@H](O)[C@@H]1O`
Response: 2.88

###

assay: Oral bioavailability in Wistar Han rat at 3 mg/kg; assay type: ADME, organism-based; details: in vivo
Below, each of the molecules is paired with its reported bioavailability value.
Provide the reading as a plain figure in %.

Record excerpt, results attached:
[
  {
    "Compound Structure String": "CNC1=N[C@@H]2[C@@H](O)[C@H](O)[C@@H](C(F)F)O[C@@H]2S1",
    "Unit Symbol": "%",
    "Data Value": 93.8
  },
  {
    "Compound Structure String": "CCNC1=N[C@@H]2[C@@H](O)[C@H](O)[C@@H](CF)O[C@@H]2S1",
    "Unit Symbol": "%",
    "Data Value": 102
  },
  {
    "Compound Structure String": "CNC1=N[C@@H]2[C@H](F)[C@H](O)[C@@H](CO)O[C@@H]2S1",
    "Unit Symbol": "%",
    "Data Value": 70.4
  }
]

Query: State the recorded bioavailability for this entry: `CCCNC1=N[C@@H]2[C@@H](F)[C@H](O)[C@@H](CO)O[C@@H]2S1`
Response: 30.1

Query: State the recorded bioavailability for this entry: `OC[C@H]1O[C@@H]2SC(NCCF)=N[C@@H]2[C@@H](O)[C@@H]1O`
Response: 48.6

Query: State the recorded bioavailability for this entry: `CCCNC1=N[C@@H]2[C@@H](O)[C@H](O)[C@@H](C(F)F)O[C@@H]2S1`
Response: 44.8

Query: State the recorded bioavailability for this entry: `CNC1=N[C@@H]2[C@H](F)[C@H](O)[C@@H](C(F)F)O[C@@H]2S1`
Response: 90.4

Query: State the recorded bioavailability for this entry: `C=CCN(C)C1=N[C@@H]2[C@@H](O)[C@H](O)[C@@H](CO)O[C@@H]2S1`
Response: 108

Query: State the recorded bioavailability for this entry: `CNC1=N[C@@H]2[C@@H](O)[C@H](O)[C@@H](CF)O[C@@H]2S1`
Response: 132

###

target: Protein O-GlcNAcase (Homo sapiens, UniProt O60502); assay: Inhibition of recombinant human OGA
Sequence (O60502 whole entry): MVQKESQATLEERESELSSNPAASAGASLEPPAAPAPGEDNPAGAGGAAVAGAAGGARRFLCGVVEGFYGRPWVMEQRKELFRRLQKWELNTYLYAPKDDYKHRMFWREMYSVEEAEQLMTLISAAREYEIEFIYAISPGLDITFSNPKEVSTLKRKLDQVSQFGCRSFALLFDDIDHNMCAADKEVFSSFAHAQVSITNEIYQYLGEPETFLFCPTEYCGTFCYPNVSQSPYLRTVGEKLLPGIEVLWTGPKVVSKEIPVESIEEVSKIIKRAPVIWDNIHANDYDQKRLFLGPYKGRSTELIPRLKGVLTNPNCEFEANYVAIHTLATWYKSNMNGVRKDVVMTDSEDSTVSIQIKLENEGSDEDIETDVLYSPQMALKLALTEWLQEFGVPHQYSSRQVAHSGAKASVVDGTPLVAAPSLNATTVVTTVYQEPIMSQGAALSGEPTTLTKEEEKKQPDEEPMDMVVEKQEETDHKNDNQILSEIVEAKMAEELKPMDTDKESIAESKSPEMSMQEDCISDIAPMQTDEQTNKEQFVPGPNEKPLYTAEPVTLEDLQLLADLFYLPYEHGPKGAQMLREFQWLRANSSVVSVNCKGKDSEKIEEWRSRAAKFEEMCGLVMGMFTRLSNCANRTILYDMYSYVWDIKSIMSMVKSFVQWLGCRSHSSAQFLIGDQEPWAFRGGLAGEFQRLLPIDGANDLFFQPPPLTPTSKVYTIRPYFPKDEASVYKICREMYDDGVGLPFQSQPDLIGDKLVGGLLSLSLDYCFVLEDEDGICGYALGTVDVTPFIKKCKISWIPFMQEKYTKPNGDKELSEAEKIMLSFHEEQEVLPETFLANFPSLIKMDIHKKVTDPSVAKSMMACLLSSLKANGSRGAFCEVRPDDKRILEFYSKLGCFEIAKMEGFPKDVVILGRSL
Readout: Ki (nM)
Provide the reading as a plain figure in nM.

[
  {
    "Compound Structure String": "CNC1=N[C@@H]2[C@@H](O)[C@H](O)[C@@H](CF)O[C@@H]2S1",
    "Target": "Protein O-GlcNAcase (Homo sapiens, UniProt O60502)",
    "Readout": "Ki",
    "Unit Symbol": "nM",
    "Data Value": 0.55
  },
  {
    "Compound Structure String": "CCCNC1=N[C@@H]2C[C@H](O)[C@@H](CO)O[C@@H]2S1",
    "Target": "Protein O-GlcNAcase (Homo sapiens, UniProt O60502)",
    "Readout": "Ki",
    "Unit Symbol": "nM",
    "Data Value": 50
  },
  {
    "Compound Structure String": "CN(C)C1=N[C@@H]2[C@@H](O)[C@H](O)[C@@H](CF)O[C@@H]2S1",
    "Target": "Protein O-GlcNAcase (Homo sapiens, UniProt O60502)",
    "Readout": "Ki",
    "Unit Symbol": "nM",
    "Data Value": 9
  },
  {
    "Compound Structure String": "C=CCNC1=N[C@@H]2[C@@H](O)[C@H](O)[C@@H](C(F)F)O[C@@H]2S1",
    "Target": "Protein O-GlcNAcase (Homo sapiens, UniProt O60502)",
    "Readout": "Ki",
    "Unit Symbol": "nM",
    "Data Value": 74
  },
  {
    "Compound Structure String": "CCNC1=N[C@@H]2[C@@H](O)[C@H](O)[C@@H](C(F)F)O[C@@H]2S1",
    "Target": "Protein O-GlcNAcase (Homo sapiens, UniProt O60502)",
    "Readout": "Ki",
    "Unit Symbol": "nM",
    "Data Value": 7.9
  },
  {
    "Compound Structure String": "OC[C@H]1O[C@@H]2SC(N3CCC3)=N[C@@H]2[C@@H](O)[C@@H]1O",
    "Target": "Protein O-GlcNAcase (Homo sapiens, UniProt O60502)",
    "Readout": "Ki",
    "Unit Symbol": "nM",
    "Data Value": 3.3
  }
]

Query: State the recorded Ki for this entry: `CNC1=N[C@@H]2[C@@H](F)[C@H](O)[C@@H](C(F)F)O[C@@H]2S1`
Response: 58

Query: State the recorded Ki for this entry: `CC1CN(C2=N[C@@H]3[C@@H](O)[C@H](O)[C@@H](CO)O[C@@H]3S2)C1`
Response: 72

###

test: Fraction unbound in Wistar Han rat plasma at 2.5 uM by equilibrium dialysis; assay type: ADME, cell-free
Below, each of the compounds is paired with its reported fraction unbound at 2.5 µM value.
Just the number, please, no unit after it.

Record excerpt, results attached:
[
  {
    "Compound Structure String": "CNC1=N[C@@H]2[C@@H](O)[C@H](O)[C@@H](C(F)F)O[C@@H]2S1",
    "fraction unbound at 2.5 µM": 0.83
  },
  {
    "Compound Structure String": "CN(C)C1=N[C@@H]2[C@@H](O)[C@H](O)[C@@H](C(F)F)O[C@@H]2S1",
    "fraction unbound at 2.5 µM": 0.95
  },
  {
    "Compound Structure String": "CCNC1=N[C@@H]2[C@@H](O)[C@H](O)[C@@H](CF)O[C@@H]2S1",
    "fraction unbound at 2.5 µM": 0.98
  }
]

Query: State the recorded fraction unbound at 2.5 µM for this entry: `CCNC1=N[C@@H]2[C@@H](O)[C@H](O)[C@@H](CO)O[C@@H]2S1`
Response: 0.73

Query: State the recorded fraction unbound at 2.5 µM for this entry: `CNC1=N[C@@H]2C[C@H](O)[C@@H](C(F)F)O[C@@H]2S1`
Response: 0.88

###

assay: Half life in Wistar Han rat at 2 mg/kg, iv; format: ADME, organism-based; conditions: in vivo
Readout: half-life (h)
Provide the reading as a plain figure in h.

[
  {
    "Compound Structure String": "C=CCN(C)C1=N[C@@H]2[C@@H](O)[C@H](O)[C@@H](CO)O[C@@H]2S1",
    "Readout": "half-life",
    "Data Value": 4.03
  },
  {
    "Compound Structure String": "CNC1=N[C@@H]2C[C@H](O)[C@@H](CO)O[C@@H]2S1",
    "Readout": "half-life",
    "Data Value": 1.06
  },
  {
    "Compound Structure String": "OC[C@H]1O[C@@H]2SC(NCCF)=N[C@@H]2[C@@H](O)[C@@H]1O",
    "Readout": "half-life",
    "Data Value": 1.29
  },
  {
    "Compound Structure String": "CN(C)C1=N[C@@H]2[C@@H](O)[C@H](O)[C@@H](C(F)F)O[C@@H]2S1",
    "Readout": "half-life",
    "Data Value": 3.81
  },
  {
    "Compound Structure String": "CCNC1=N[C@@H]2[C@@H](O)[C@H](O)[C@@H](CO)O[C@@H]2S1",
    "Readout": "half-life",
    "Data Value": 1.4
  }
]

Query: State the recorded half-life for this entry: `CCNC1=N[C@@H]2[C@@H](F)[C@H](O)[C@@H](CO)O[C@@H]2S1`
Response: 2.4

Query: State the recorded half-life for this entry: `CCNC1=N[C@@H]2[C@@H](O)[C@H](O)[C@@H](CF)O[C@@H]2S1`
Response: 2.39

Query: State the recorded half-life for this entry: `CNC1=N[C@@H]2[C@H](F)[C@H](O)[C@@H](C(F)F)O[C@@H]2S1`
Response: 4.29

Query: State the recorded half-life for this entry: `CCCNC1=N[C@@H]2[C@@H](F)[C@H](O)[C@@H](CO)O[C@@H]2S1`
Response: 1.69

From: ChEMBL document CHEMBL4354805
